Provenance of the data: ChEMBL document CHEMBL1201862

# Tested on: UACC-257
# Experiment notes: NCI tumour cell line growth inhibition, 48 h
Activity calls are given as the source filed them. No stated cut-off is given here; in the data, active = GI50 up to about 1.1 µM and inactive = higher.
// one of active, inactive, no free text

Answer briefly: the call reported for CC(=O)c1c2c(cc3c1CC1(C3)Cc3cc4c(c(C(C)=O)c3C1)CCC4)CCC2 in this assay. inactive

Lab log entry: CCCCN(CCCC)c1ccc(/N=N/c2ccc(S(=O)(=O)O)cc2)cc1 — outcome as called in the assay? inactive

Per the records of this test, what outcome belongs to CN1C(=O)C(c2c[nH]c3ccccc23)N(C)C(=O)C1c1c[nH]c2ccccc12 (configuration not stated) ? inactive

I would be grateful if you could indicate the recorded call for Brc1ccccc1/C=C\C1(c2ccccc2)OCCO1 . inactive

Record lookup: outcome of this test for N#COc1ccc(Oc2ccccc2)cc1 ? inactive

What did this assay record as the result for CC1=NN(c2nc(N)nc(COc3ccc(N)cc3)n2)C(C)(C)C1 ? inactive

Given CC1=C([S+]([O-])c2ccc(C)cc2)CCC2(CCCCO2)O1 (configuration not stated) , state the outcome it received in this test. inactive

What did this assay record as the result for COc1ccc(-c2c(C#N)c(NC(=S)NC(=O)c3ccccc3)nc3c2CCCC3)cc1OC ? inactive

Could you kindly confirm the outcome this assay logged for COc1ccc(N2CCOCC2)cc1 ? inactive

Hi, do you know how S=C(Nc1ccccc1)N1N=C2c3ccccc3CC[C@H]2[C@@H]1c1ccccc1 came out in this test? inactive

Field: outcome | Entry: Cc1cc(C(=O)CCCCOc2ccc(C3=NCCO3)cc2)c(C)n1C inactive

Called result for CCCCCCCCCCCC[C@@H](O)[C@H]1CC[C@H]([C@H]2CC[C@H]([C@H](O)CC[C@H](O)CCCCCCCC3=C[C@H](C)OC3=O)O2)O1 active

Called result for O=C(/C=C/c1ccsc1)c1ccsc1 inactive

Short answer needed: outcome of this test for CSc1c(C(=O)Nc2ccccc2)c(N)n(N)c(=O)c1C#N ? inactive

Hey, what did the test say about COC(=O)[C@@H]1[C@H]2CC[C@]3(C)[C@@H](OC(C)=O)CC[C@H]3[C@@H]2CC[C@H]1C(C)=O ? inactive

Lab log entry: N#CI1OC(=O)c2ccccc21 — outcome as called in the assay? inactive

What is the recorded call for this compound in the test? CCOC(=O)/C(C#N)=C/Nc1c(C)n(C)n(-c2ccccc2)c1=O inactive

Record lookup: outcome of this test for Oc1cccc(Nc2cc(O)nc(O)n2)c1 ? inactive

Which outcome was assigned to O=S(=O)(O)/C(=N\c1cccc(Cc2ccccc2)c1)Nc1cccc(Cc2ccccc2)c1 in this test? inactive

Each compound tested received a call. Report the one for O=C1CCC2(c3ccc(Cl)cc3)Nc3ncccc3N12 (configuration not stated) . inactive

Fill in: this test's call for Fc1ccccc1C1SCc2nc3ccccc3n21 (configuration not stated) is ___ inactive

Please let me know the test result on file for C[N+]1(C)CCCC1C(=O)[O-] (configuration not stated) . inactive
